Data origin: the supplement of paper PMC10883282

system: SK-LMS-1; test: standardised AUC of viability dose-response curve (72 h) (fraction (0-1)); higher = less growth inhibition (more resistant)
Record form. Attribute: standardised AUC. Fill in for each entry.
Give bare numbers.

COMPOUND	STUDY_SYSTEM	standardised AUC
O=C1CCc2c(Oc3ccc4c(c3)[C@@H]3[C@H](O4)[C@H]3c3nc4cc(C(F)(F)F)ccc4[nH]3)ccnc2N1	SK-LMS-1	0.904
CN(C)CCCOc1ccc(-c2ccc3ncc4c(c3c2)n(C2CCOCC2)c(=O)n4C)cn1	SK-LMS-1	0.858
O=S(=O)(c1cccc2c(O)nccc12)N1CCCNCC1 [HYDROXYFASUDIL]	SK-LMS-1	0.979
COc1cc(Nc2ncc3c(n2)-c2ccc(Cl)cc2C(c2c(F)cccc2OC)=NC3)ccc1C(=O)O	SK-LMS-1	0.865

Working through the 3 compounds below one at a time, give standardised AUC for each.
1. CO[C@H]1C[C@@H]2CC[C@@H](C)[C@@](O)(O2)C(=O)C(=O)N2CCCC[C@H]2C(=O)O[C@H]([C@H](C)C[C@@H]2CC[C@@H](OC(=O)C(C)(CO)CO)[C@H](OC)C2)CC(=O)[C@H](C)/C=C(\C)[C@@H](O)[C@@H](OC)C(=O)[C@H](C)C[C@H](C)/C=C/C=C/C=C/1C
2. C=CC(=O)N1CCC(CNc2ncnc(N)c2-c2ccc(Oc3ccccc3)cc2)CC1
3. O=C(c1ccc(F)c(F)c1Nc1ccc(I)cc1F)N1CC(O)([C@@H]2CCCCN2)C1

[A]
0.64
0.981
0.628

* * *

Record form. Attribute: relative viability. Fill in for each entry.
tested on: SW1353; assay: relative viability vs DMSO control (72 h) (fraction); higher = more viable cells; conditions: 0.00051 µM
Answers are plain numbers.

Worked set:
COMPOUND	relative viability
C[C@@H]1CN(C(=O)c2ccc(NC(=O)c3cc(O[C@H](C)c4c(Cl)ccc(F)c4Cl)c(N)nn3)cc2)C[C@H](C)N1	0.938
O=C(c1ccc(F)c(F)c1Nc1ccc(I)cc1F)N1CC(O)([C@@H]2CCCCN2)C1	0.983
C#Cc1cccc(Nc2ncnc3cc4c(cc23)OCCOCCOCCO4)c1	1.04

Working through the 3 compounds below one at a time, give relative viability for each.
1. CS(=O)(=O)CCNCc1ccc(-c2ccc3ncnc(Nc4ccc(OCc5cccc(F)c5)c(Cl)c4)c3c2)o1
2. CN(C)C(=O)c1cc2cnc(Nc3ccc(N4CCNCC4)cn3)nc2n1C1CCCC1
3. O=S(=O)(c1cccc2c(O)nccc12)N1CCCNCC1 [Hydroxyfasudil]

[A]
0.962
1
1.07

Working through the 2 compounds below one at a time, give relative viability for each.
1. O=C(/C=C\n1cnc(-c2cc(C(F)(F)F)cc(C(F)(F)F)c2)n1)NNc1cnccn1 [Selinexor]
2. Cc1cc(F)c(C(=O)Nc2cccc(-c3nncn3C(C)C)n2)cc1-n1cnc(C2CC2)c1

[A]
1: 1.06; 2: 0.977

Working through the 3 compounds below one at a time, give relative viability for each.
1. CNC(=O)c1cccc2cc(Oc3ccnc4cc(OCC5(N)CC5)c(OC)cc34)ccc12
2. COc1cc(Nc2ncc3c(n2)-c2ccc(Cl)cc2C(c2c(F)cccc2OC)=NC3)ccc1C(=O)O
3. CN(C)C/C=C/C(=O)Nc1cc2c(Nc3ccc(F)c(Cl)c3)ncnc2cc1O[C@H]1CCOC1

[A]
1. 1.06
2. 0.972
3. 1.01

* * *

Record form. Attribute: relative viability. Fill in for each entry.
tested on: SK-LMS-1; assay: relative viability vs DMSO control (72 h) (fraction); higher = more viable cells; settings: 0.00051 µM
Give bare numbers.

MOLECULE	STUDY_SYSTEM	MEASURED
CN(C)C(=O)c1cc2cnc(Nc3ccc(N4CCNCC4)cn3)nc2n1C1CCCC1	SK-LMS-1	1.05

Working through the 4 molecules below one at a time, give relative viability for each.
1. CNC(=O)c1c(C)oc2cc(Oc3ncnc4cc(OC)c(OC)cc34)ccc12
2. C[C@@H]1CN(C(=O)c2ccc(NC(=O)c3cc(O[C@H](C)c4c(Cl)ccc(F)c4Cl)c(N)nn3)cc2)C[C@H](C)N1
3. Cc1[nH]c(/C=C2\C(=O)Nc3ccccc32)c(C)c1CCC(=O)O [Orantinib]
4. O=C(/C=C\n1cnc(-c2cc(C(F)(F)F)cc(C(F)(F)F)c2)n1)NNc1cnccn1 [Selinexor]

[A]
1: 1.1; 2: 0.998; 3: 1.07; 4: 1.03

Working through the 3 molecules below one at a time, give relative viability for each.
1. O=C(c1ccc(F)c(F)c1Nc1ccc(I)cc1F)N1CC(O)([C@@H]2CCCCN2)C1
2. COc1cc(Nc2ncc3c(n2)-c2ccc(Cl)cc2C(c2c(F)cccc2OC)=NC3)ccc1C(=O)O
3. COC(=O)c1ccc2c(c1)NC(=O)/C2=C(\Nc1ccc(N(C)C(=O)CN2CCN(C)CC2)cc1)c1ccccc1

[A]
1.09
1.02
1.13

* * *

Record form. Attribute: relative viability. Fill in for each entry.
tested on: HT1080; test: relative viability vs DMSO control (72 h) (fraction); higher = more viable cells; settings: 0.1235 µM
Give bare numbers.

Worked set:
COMPOUND	MEASURED_QUANTITY	MEASURED
Cc1c2oc3c(C)ccc(C(=O)N[C@@H]4C(=O)N[C@H](C(C)C)C(=O)N5CCC[C@H]5C(=O)N(C)CC(=O)N(C)[C@@H](C(C)C)C(=O)O[C@@H]4C)c3nc-2c(C(=O)N[C@@H]2C(=O)N[C@H](C(C)C)C(=O)N3CCC[C@H]3C(=O)N(C)CC(=O)N(C)[C@@H](C(C)C)C(=O)O[C@@H]2C)c(N)c1=O [Dactinomycin]	relative viability	0.185
C#Cc1cccc(Nc2ncnc3cc4c(cc23)OCCOCCOCCO4)c1 [Icotinib]	relative viability	1.1
COc1cc(N2CCC(N3CCN(C)CC3)CC2)ccc1Nc1ncc(Cl)c(Nc2ccccc2P(C)(C)=O)n1 [Brigatinib]	relative viability	1.01
Cc1cc(F)c(C(=O)Nc2cccc(-c3nncn3C(C)C)n2)cc1-n1cnc(C2CC2)c1 [Selonsertib]	relative viability	1.04
Cn1cnc2c(F)c(Nc3ccc(Br)cc3Cl)c(C(=O)NOCCO)cc21 [Selumetinib]	relative viability	0.805
CS(=O)(=O)CCNCc1ccc(-c2ccc3ncnc(Nc4ccc(OCc5cccc(F)c5)c(Cl)c4)c3c2)o1 [Lapatinib]	relative viability	1.04

Consider the record given below.
[Q] Would you kindly share the measured relative viability for COc1cc2ncnc(Nc3ccc(F)c(Cl)c3)c2cc1OCCCN1CCOCC1 [Gefitinib] ?
[A] 1.05

* * *

test system: HT1080; experiment: relative viability vs DMSO control (72 h) (fraction); higher = more viable cells; conditions: 3.333 µM
MEASURED_QUANTITY: relative viability

Worked set:
COMPOUND	relative viability
CO[C@H]1C[C@@H]2CC[C@@H](C)[C@@](O)(O2)C(=O)C(=O)N2CCCC[C@H]2C(=O)O[C@H]([C@H](C)C[C@@H]2CC[C@@H](OC(=O)C(C)(CO)CO)[C@H](OC)C2)CC(=O)[C@H](C)/C=C(\C)[C@@H](O)[C@@H](OC)C(=O)[C@H](C)C[C@H](C)/C=C/C=C/C=C/1C [Temsirolimus]	0.8
Cc1cc2c(F)c(Oc3ncnn4cc(OC[C@@H](C)OC(=O)[C@H](C)N)c(C)c34)ccc2[nH]1 [Brivanib_alaninate]	0.99

Working through the 3 compounds below one at a time, give relative viability for each.
1. CNC(=O)c1cccc2cc(Oc3ccnc4cc(OCC5(N)CC5)c(OC)cc34)ccc12 [Lucitanib]
2. CNC(=O)c1c(C)oc2cc(Oc3ncnc4cc(OC)c(OC)cc34)ccc12 [Fruquintinib]
3. Cc1[nH]c(/C=C2\C(=O)Nc3ccccc32)c(C)c1CCC(=O)O [Orantinib]

[A]
1: 1.12; 2: 1.02; 3: 0.991

Working through the 2 compounds below one at a time, give relative viability for each.
1. Cc1c2oc3c(C)ccc(C(=O)N[C@@H]4C(=O)N[C@H](C(C)C)C(=O)N5CCC[C@H]5C(=O)N(C)CC(=O)N(C)[C@@H](C(C)C)C(=O)O[C@@H]4C)c3nc-2c(C(=O)N[C@@H]2C(=O)N[C@H](C(C)C)C(=O)N3CCC[C@H]3C(=O)N(C)CC(=O)N(C)[C@@H](C(C)C)C(=O)O[C@@H]2C)c(N)c1=O [Dactinomycin]
2. C=CC(=O)N1CCC(CNc2ncnc(N)c2-c2ccc(Oc3ccccc3)cc2)CC1 [Evobrutinib]

[A]
1. 0.128
2. 1.1

* * *

tested on: MES-SA; test: relative viability vs DMSO control (72 h) (fraction); higher = more viable cells; conditions: 1.111 µM
MEASURED_QUANTITY: relative viability
One number for each entry.

COMPOUND	MEASURED_QUANTITY	MEASURED
Cc1cc2c(F)c(Oc3ncnn4cc(OC[C@@H](C)OC(=O)[C@H](C)N)c(C)c34)ccc2[nH]1 [Brivanib_alaninate]	relative viability	0.956
C=CC(=O)N1CCC(CNc2ncnc(N)c2-c2ccc(Oc3ccccc3)cc2)CC1	relative viability	0.928
CC(=O)c1c(C)c2cnc(Nc3ccc(N4CCNCC4)cn3)nc2n(C2CCCC2)c1=O	relative viability	0.641
COc1cc2ncnc(Nc3ccc(F)c(Cl)c3)c2cc1OCCCN1CCOCC1	relative viability	0.925
CCS(=O)(=O)N1CC(CC#N)(n2cc(-c3ncnc4[nH]ccc34)cn2)C1	relative viability	0.893
CN(C)C(=O)c1cc2cnc(Nc3ccc(N4CCNCC4)cn3)nc2n1C1CCCC1	relative viability	0.817
CN(C)C/C=C/C(=O)Nc1cc2c(Nc3ccc(F)c(Cl)c3)ncnc2cc1O[C@H]1CCOC1	relative viability	0.452
COc1cc(Nc2ncc3c(n2)-c2ccc(Cl)cc2C(c2c(F)cccc2OC)=NC3)ccc1C(=O)O	relative viability	0.328

Working through the 2 compounds below one at a time, give relative viability for each.
1. Cc1[nH]c(/C=C2\C(=O)Nc3ccccc32)c(C)c1CCC(=O)O [Orantinib]
2. Cc1cc(F)c(C(=O)Nc2cccc(-c3nncn3C(C)C)n2)cc1-n1cnc(C2CC2)c1

[A]
1. 0.941
2. 0.87

[Q] Would you kindly share the measured relative viability for C[C@@H]1CN(C(=O)c2ccc(NC(=O)c3cc(O[C@H](C)c4c(Cl)ccc(F)c4Cl)c(N)nn3)cc2)C[C@H](C)N1 ?
[A] 0.498
